This collection of values is drawn from PubChem BioAssay.

assay: growth suppression of beta-catenin knockout HCT116, pilot screen, human colon tumor cells (AID 823); settings: CellTiter-Glo, 60 h, at 10 µM, hits give low values;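 also: 0% = wells killed by 20 µM Hyamine and 100% = untreated DMSO cell wells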
Records with an inconclusive call do not appear.
Overview of recorded viability for various compounds
Quick note: give the figure in %, leave out the unit.

[
  {
    "Compound": "COc1ccccc1NC(=O)c1ccc(S(=O)(=O)N(C)C)cc1",
    "Readout Number": 108
  }
]

Inquiry: Specify measured viability for `CCn1cc(C(=O)NCC(=O)OC)c2cc(OC)c(OC)cc2c1=O` .
Reply text: 105

Inquiry: Specify measured viability for `COc1cc(NC(=O)c2cc(C(C)C)on2)cc(OC)c1OC` .
Reply text: 95.2

Inquiry: Specify measured viability for `COc1cc(C(=O)Nc2ccc(N(C)C)cc2)cc(OC)c1OC` .
Reply text: 82.2

Inquiry: Specify measured viability for Cc1oc(-c2cccs2)nc1CS(=O)CC(=O)NCCc1ccccc1 (configuration not stated) .
Reply text: 86.1

Inquiry: Specify measured viability for O=C(Nc1ccccc1)OCC1CCCN2CCCCC12 (configuration not stated) .
Reply text: 95.7

Inquiry: Specify measured viability for COc1ccc(C2N3CC4(C)CN2CC(C)(C3)C4=O)cc1OC (configuration not stated) .
Reply text: 102

Inquiry: Specify measured viability for `Cc1[nH]n2c(=O)c3c(nc2c1-c1ccc(Cl)cc1)CCC3` .
Reply text: 22.5

Inquiry: Specify measured viability for `OCCN1CCN(c2ncnc3ccc(Br)cc23)CC1` .
Reply text: 99.1

###

assay: RAM signaling pathway blockade in yeast – S. cerevisiae, Pdr1DBD-CYC8 efflux-inhibited sensitized strain, primary screen (AID 1298);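 also: 0% = DMSO untreated cells without growth and 100% = 10 µM 1-NA-PP1 full growth; higher means more yeast growth rescued from 5-FOA killing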; conditions: S. cerevisiae cbk1-as DSE1-URA3 strain, 5-FOA growth OD615, 2 d; at 50 µM; hits give high values
Property Measured: RAM network inhibition (%)
Quick note: give the figure in %, leave out the unit.

Study these solved cases before continuing.
[
  {
    "Compound": "O=C(Nc1ccc2c(c1)OCO2)C1CCCN1C(=O)OCc1ccccc1 (stereo not drawn)",
    "RAM network inhibition [%]": 4.12
  },
  {
    "Compound": "COc1ccccc1CNC(=O)C1COc2ccccc2O1 (stereo not drawn)",
    "RAM network inhibition [%]": 2.77
  },
  {
    "Compound": "Cc1ccc(C)c(N2CCN(CC(=O)Nc3ccc4[nH]c(=O)[nH]c4c3)CC2)c1",
    "RAM network inhibition [%]": 1.87
  }
]

Inquiry: Specify measured RAM network inhibition for CC1CCN(C(=O)C(Cc2ccccc2)NS(=O)(=O)c2ccc3c(c2)oc(=O)n3C)CC1 (stereo not drawn) .
Reply text: 8.04

Inquiry: Specify measured RAM network inhibition for Cc1cccc(-c2nc(CS(=O)CC(=O)N3CCc4ccccc4C3)c(C)o2)c1 (stereo not drawn) .
Reply text: 3.23

Inquiry: Specify measured RAM network inhibition for CC(Oc1ccc(Cl)cc1Cl)c1nc(-c2ccccn2)no1 (stereo not drawn) .
Reply text: 2.34

Inquiry: Specify measured RAM network inhibition for COc1cc(OC)c(C2CC(=O)N3CN(C)CSC3=C2C#N)cc1OC (stereo not drawn) .
Reply text: 9.58

Inquiry: Specify measured RAM network inhibition for `CCOC(=O)Cn1c(=O)oc2cc(S(=O)(=O)N3CCC(N4CCCCC4)CC3)ccc21` .
Reply text: 0.21

Inquiry: Specify measured RAM network inhibition for CCn1c(SCC(=O)NCC2CCCO2)nc2c(c1=O)SC(C)C2 (stereo not drawn) .
Reply text: 2.66

Inquiry: Specify measured RAM network inhibition for COc1ccc(N2C(=O)CCC(C(=O)Nc3ccccn3)C2c2ccc(OC)c(OC)c2)cc1 (stereo not drawn) .
Reply text: 0.04

Inquiry: Specify measured RAM network inhibition for CC(C)(C)c1ccc(S(=O)(=O)N2CCCCC2C(=O)NCc2ccccn2)cc1 (stereo not drawn) .
Reply text: 5.71

Inquiry: Specify measured RAM network inhibition for CC1CCCCN1CCCNC(=O)C1CCN(c2nc3ccccc3o2)CC1 (stereo not drawn) .
Reply text: 3.1

Inquiry: Specify measured RAM network inhibition for COc1ccc(C2C(C(=O)Nc3cccnc3)=C(C)Nc3nc(-c4ccco4)nn32)cc1 (stereo not drawn) .
Reply text: 2.07

Inquiry: Specify measured RAM network inhibition for `COc1ccccc1NC(=O)Cc1noc(CSc2nnc(C)s2)n1` .
Reply text: 5.03

Inquiry: Specify measured RAM network inhibition for `CCn1nnnc1-c1ccc(OC)c(S(=O)(=O)NCCc2ccccc2)c1` .
Reply text: 1.98

###

assay: Restrictive medium S. cerevisiae growth inhibition, OD615, pilot screen of yeast lifespan reduction project, restrictive growth control (AID 706); settings: OD615, 48 h, at 10 µM, hits give high values;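 also: modified DeaD lifespan yeast strain shifted to restrictive glucose medium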
Property Measured: growth inhibition (%)
Quick note: give the figure in %, leave out the unit.

Inquiry: Specify measured growth inhibition for CC(C)n1c(C(O)c2ccccc2)nc2ccccc21 (stereo not given) .
Reply text: -13.6

###

experiment: growth suppression of beta-catenin knockout HCT116, pilot screen, human colon tumor cells (AID 823); conditions: CellTiter-Glo, 60 h, at 10 µM, hits give low values;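 also: 0% = wells killed by 20 µM Hyamine and 100% = untreated DMSO cell wells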
Inconclusive results are not listed. Active and inactive are the calls of the source.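 Rule for the calls: active = cell viability at or below a set limit in both duplicate runs, the limit being the all-compound median minus 4 SD (cut at about 23% in these data, passing the limit was not always enough); inconclusive = no clear call, values can overlap the other calls; inactive = the rest.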
Overview of recorded viability for various compounds

[
  {
    "Compound": "CC1(C)Oc2ccc3ccc(=O)oc3c2-c2cnoc21",
    "viability": "104% (inactive)"
  }
]

Inquiry: Specify measured viability for `COc1ccc(NC(=O)Cc2nc3ccccc3[nH]2)cc1` .
Reply text: 58.9% (inactive)

Inquiry: Specify measured viability for `O=S(=O)(c1ccc(Br)cc1)N1CCN(c2cc(-c3ccccc3)nc3ncnn23)CC1` .
Reply text: 61.9% (inactive)

Inquiry: Specify measured viability for `Cc1cccc(Cn2c(CN3CCN(Cc4ccccc4)CC3)nc3c2c(=O)[nH]c(=O)n3C)c1` .
Reply text: 50.4% (inactive)

Inquiry: Specify measured viability for `Cc1cccc(CSc2nnc(Cn3c(=O)sc4ccccc43)n2C)c1` .
Reply text: 86.4% (inactive)

Inquiry: Specify measured viability for `Fc1cc(Br)ccc1Nc1nc2ccccc2n2nnnc12` .
Reply text: 91.5% (inactive)

Inquiry: Specify measured viability for COc1cc(NC(=O)C2CCCN2C(=O)C2CCC(C)CC2)cc(OC)c1OC (configuration not stated) .
Reply text: 96.3% (inactive)

###

Overview of recorded inhibition for various compounds
assay: inhibitors of the yeast RAM network, pilot screen, dse1pr::URA3 reporter, 5-FOA selection (AID 869);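 also: 0% = DMSO wells with no growth and 100% = 10 µM 1-NA-PP1 with full growth; RAM network block rescues cells from 5-FOA so hits raise OD615 growth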; details: S. cerevisiae dse1pr::URA3 5-FOA growth, OD615, 2 d; at 10 µM; hits give high values; strain carries analog-sensitive mutant Cbk1 kinase
Quick note: give the figure in %, leave out the unit.

[
  {
    "Compound": "Cc1c(/C=N/n2cnnc2)c2ccccc2n1C",
    "Uom": "%",
    "inhibition": -0.13
  },
  {
    "Compound": "CCOC(=O)c1ccc(Nc2cc(C)nc3nc(C)nn23)cc1",
    "Uom": "%",
    "inhibition": 0.015
  },
  {
    "Compound": "Cc1nc2ccccc2c2oc(C(=O)NC3CC3)cc12",
    "Uom": "%",
    "inhibition": 0.79
  }
]

Inquiry: Specify measured inhibition for `NC(=O)c1sc(=S)n(-c2ccc(Br)cc2)c1N` .
Reply text: 1.51

Inquiry: Specify measured inhibition for `NC(=O)C1(N2CCCCC2)CCN(C(=O)c2cccs2)CC1` .
Reply text: 0.955

Inquiry: Specify measured inhibition for `CCOC(=O)/C=C/S(=O)(=O)c1ccc(NC(C)=O)cc1` .
Reply text: 0.03

Inquiry: Specify measured inhibition for `CCCn1c(CNc2ccc(Br)cc2)nc2ccccc21` .
Reply text: 1.47

Inquiry: Specify measured inhibition for Cc1ccc(N(C(C)C(=O)O)S(=O)(=O)c2cccnc2)cc1 (stereo not given) .
Reply text: -0.19

Inquiry: Specify measured inhibition for `COc1ccc(NC(=O)Nc2cccc(C)n2)cc1` .
Reply text: 0.5

Inquiry: Specify measured inhibition for `COc1cc(C2N(c3ccccc3)CCN2c2ccccc2)ccc1OC(C)=O` .
Reply text: 0.44

Inquiry: Specify measured inhibition for CN(C)c1ccc(C2N(c3ccc(Cl)cc3)C(=O)C3CCCN32)cc1 (stereo not given) .
Reply text: 2.37

Inquiry: Specify measured inhibition for `N#Cc1ccc(Oc2cccnc2)cc1C#N` .
Reply text: 1.49

Inquiry: Specify measured inhibition for `CSc1cccc(NS(=O)(=O)c2cccc3nsnc23)c1` .
Reply text: 0.885

Inquiry: Specify measured inhibition for COC(=O)c1ccccc1NC(NC(=O)c1ccco1)C(=O)c1ccc(C)cc1 (stereo not given) .
Reply text: 4.25

Inquiry: Specify measured inhibition for CC(CCc1ccco1)NC(=O)Cn1ncc2c(=O)oc3ccccc3c21 (stereo not given) .
Reply text: 1.96

Inquiry: Specify measured inhibition for COC(=O)c1ccc2c(c1)N(Cc1nc(-c3cccc(C)c3)oc1C)C(=O)C1CCCN21 (stereo not given) .
Reply text: 2.06

###

assay: growth suppression of beta-catenin knockout HCT116, pilot screen, human colon tumor cells (AID 823); details: CellTiter-Glo, 60 h, at 10 µM, hits give low values;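 also: 0% = wells killed by 20 µM Hyamine and 100% = untreated DMSO cell wells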
Records with an inconclusive call do not appear.
Overview of recorded viability for various compounds
Quick note: give the figure in %, leave out the unit.

[
  {
    "Compound": "COc1ccc(NC(=O)N(Cc2cccnc2)Cc2ccccc2Cl)c(OC)c1",
    "Uom": "%",
    "viability": 91.2
  },
  {
    "Compound": "CNc1oc(-c2ccccc2)nc1C#N",
    "Uom": "%",
    "viability": 101
  },
  {
    "Compound": "CC(=O)Nc1ccc(OCC=C(Cl)Cl)cc1",
    "Uom": "%",
    "viability": 97.2
  },
  {
    "Compound": "CCC1Oc2ccc(C)cc2N(CC(=O)N2CCN(c3ccc(F)cc3)CC2)C1=O (configuration not stated)",
    "Uom": "%",
    "viability": 90
  }
]

Inquiry: Specify measured viability for CC(=O)NC(CCS(C)(=O)=O)C(=O)Nc1cc(Cl)ccc1Cl (configuration not stated) .
Reply text: 105

Inquiry: Specify measured viability for `Cc1cc(=O)c2c(C)nn(-c3ccccc3)c2[nH]1` .
Reply text: 96.7

Inquiry: Specify measured viability for `COc1ccc(C)cc1NC(=O)CN(c1ccc(F)cc1)S(C)(=O)=O` .
Reply text: 92.4

Inquiry: Specify measured viability for `C=CCSC1=N/C(=C\c2ccsc2)C(=O)S1` .
Reply text: 98.1

Inquiry: Specify measured viability for `O=C(O)c1cc(Cl)c(Cl)cc1C(=O)N1CCOCC1` .
Reply text: 94
